system: Bacillus subtilis; assay: cleaved RNA product abundance (RNA/gDNA barcode ratio) relative to median wild-type variant (ratio to wild type); higher = more accumulation of the downstream cleavage product; conditions: experiment (reporter, strain, medium): exp 4a: truncated aprE reporter, strain BJT201 with 2% xylose (RNase J1 expressed); cleavage site: cggR-gapA (positions -7 to +36 mutated)
PROPERTY NAME: cleaved RNA product abundance

# input Requested read-out: cleaved RNA product abundance. Entry: ACAGACGAAGGAGCCGCAAAGAAGTTATTAACGAATTAATAATCCCTCAATATAAATATCTCTCACTTATTTAAA
# output 0.0842

# input Now consider ACAGACGAAGGAGCCGCAAAGAAGTTATTAAGGGATAAATAATCCCCCAATATAAATATCTCTCACTTATTTAAA .
# output 0.22

# input Now consider ACAGACGAAGGAGCCGCAAAGAAGTTATTAAAGGATGAATAATCCCTCAATATAAATAACTCTCACTTATTTAAA .
# output 0.229

# input Now consider ACAGACGAAGGAGCCGCAAAGAAGTTATTAAGGGATGAATACTCCCACAATATAAATATCTCTCACTTATTTAAA .
# output 0.139

# input Now consider ACAGACGAAGGAGCCGCAAAGAAGTTATTAAGGGATGAATCATCCCTCACTATAAATATCTCTCACTTATTTAAA .
# output 0.22

# input Now consider ACAGACGAAGGAGCCGCAAAGAAGTTATTAAGGAGTGAATAATCCCTCAATATAAATATCTCTCACTTATTTAAA .
# output 0.171

# input Now consider ACAGACGAAGGAGCCGCAAAGACGTTATTAAGGGATGAATAATCCCCCAATATAAATATCTCTCACTTATTTAAA .
# output 0.226

This collection of values is drawn from the supplement of paper PMC11780869.
